Measured values drawn from patent EP4772513A1 for this set.

test system: Human breast cancer cells SK-BR-3 (WT); assay: Cell proliferation inhibition assay (CTG), SK-BR-3 (WT); format: cell-based; conditions: SK-BR-3 (WT) cells, 3 days incubation, CTG readout
TEST READOUT: IC50

# lookup: IC50 of Cc1cc(C(C)Nc2ccccc2C(=O)O)c2oc3c(c(=O)c2c1)CCN(C(c1ccccc1)C(F)(F)F)C3 (single isomer, unassigned) [Compound C209] > 5 µM

---

test system: Human breast cancer cells T47D (H1047R); test: Cell proliferation inhibition assay (CTG), T47D (H1047R); type: cell-based; settings: 3 days incubation, CTG readout
TEST READOUT: IC50

Can you look up IC50 on Human breast cancer cells T47D (H1047R) for Cc1cc(C(C)Nc2ccccc2C(=O)O)c2oc3c(c(=O)c2c1)CCN(C(c1ccccc1)C(F)(F)F)C3 (single isomer, unassigned) ? ≤ 500 nM
